IC50 values for Melanocyte-stimulating hormone receptor (Homo sapiens, UniProt Q01726) compiled from several publications are listed below.
Lab note: cut-off is 0.6 µM. Strictly less in IC50 is 1.0. Exactly 0.6 µM or more is 0.0.

[[record]]
compound = "CCCCC(=O)NC1(C(=O)N[C@H](Cc2ccccc2)C(=O)N[C@@H](CCCNC(=N)N)C(=O)N[C@@H](Cc2c[nH]c3ccccc23)C(=O)NCC(N)=O)CCc2c(cccc2N(C)C)C1 (single isomer, unassigned; isomer 2)"
assay_system = "Melanocyte-stimulating hormone receptor (Homo sapiens, UniProt Q01726)"
label = 0.0

[[record]]
compound = "CC(=O)N[C@@H](Cc1c[nH]cn1)C(=O)N[C@H](Cc1ccccc1)C(=O)N[C@H](CCCN=C(N)N)C(=O)N[C@H](Cc1c[nH]c2ccccc12)C(N)=O"
assay_system = "Melanocyte-stimulating hormone receptor (Homo sapiens, UniProt Q01726)"
label = 0.0

[[record]]
compound = "COc1ccc(N2N=C(Sc3ccc(Cl)cc3)CC(CC[C@@H](C)NC(=O)[C@H]3CNCC[C@@H]3c3ccc(F)cc3)C2=O)cc1 (stereo in doubt; 26)"
assay_system = "Melanocyte-stimulating hormone receptor (Homo sapiens, UniProt Q01726)"
label = 1.0

[[record]]
compound = "CC(=O)NCC(=O)N[C@H](Cc1ccccc1)C(=O)N[C@@H](CCCN=C(N)N)C(=O)N[C@H](Cc1c[nH]c2ccccc12)C(N)=O"
assay_system = "Melanocyte-stimulating hormone receptor (Homo sapiens, UniProt Q01726)"
label = 0.0

[[record]]
compound = "CC(=O)N[C@@H](Cc1c[nH]cn1)C(=O)N[C@H](Cc1ccccc1)C(=O)N[C@H](CCCN=C(N)N)C(=O)N[C@@H](Cc1c[nH]c2ccccc12)C(N)=O"
assay_system = "Melanocyte-stimulating hormone receptor (Homo sapiens, UniProt Q01726)"
label = 0.0

[[record]]
compound = "CC(=O)N[C@H](Cc1ccccc1)C(=O)N[C@H](CCCN=C(N)N)C(=O)N[C@@H](Cc1c[nH]c2ccccc12)C(N)=O"
assay_system = "Melanocyte-stimulating hormone receptor (Homo sapiens, UniProt Q01726)"
label = 0.0

[[record]]
compound = "COc1ccc(N2N=C(Sc3ccc(Cl)cc3)CC(CC[C@@H](C)NC(=O)[C@H]3CCNC[C@@H]3c3ccc(F)cc3)C2=O)cc1 (stereo in doubt; 63)"
assay_system = "Melanocyte-stimulating hormone receptor (Homo sapiens, UniProt Q01726)"
label = 0.0

[[record]]
compound = "CC(=O)N[C@H](Cc1ccccc1)C(=O)N[C@@H](CCCNC(=N)N)C(=O)N[C@H](Cc1c[nH]c2ccccc12)C(N)=O"
assay_system = "Melanocyte-stimulating hormone receptor (Homo sapiens, UniProt Q01726)"
label = 0.0

[[record]]
compound = "CCCC(=O)C1(c2ccccc2)CCN(C(=O)[C@@H](Cc2ccc(OC)cc2)NC(=O)CCc2cnc[nH]2)CC1"
assay_system = "Melanocyte-stimulating hormone receptor (Homo sapiens, UniProt Q01726)"
label = 1.0

[[record]]
compound = "CC(=O)N[C@H](Cc1ccccc1)C(=O)N[C@H](CCCNC(=N)N)C(=O)N[C@H](Cc1c[nH]c2ccccc12)C(N)=O"
assay_system = "Melanocyte-stimulating hormone receptor (Homo sapiens, UniProt Q01726)"
label = 0.0

[[record]]
compound = "CCCC(=O)C1(c2ccccc2)CCN(C(=O)[C@@H](Cc2ccc(OC)cc2)NC(=O)[C@@H](N)Cc2cnc[nH]2)CC1"
assay_system = "Melanocyte-stimulating hormone receptor (Homo sapiens, UniProt Q01726)"
label = 0.0

[[record]]
compound = "CCCC(=O)C1(c2ccccc2)CCN(C(=O)[C@@H](Cc2ccc(OC)cc2)NC(=O)[C@H](O)Cc2cnc[nH]2)CC1"
assay_system = "Melanocyte-stimulating hormone receptor (Homo sapiens, UniProt Q01726)"
label = 1.0

[[record]]
compound = "CCCCC(=O)NC1(C(=O)NC(Cc2ccccc2)C(=O)N[C@@H](CCCN=C(N)N)C(=O)N[C@@H](Cc2c[nH]c3ccccc23)C(=O)NCC(N)=O)CCc2c(Br)cccc2C1 (single isomer, unassigned)"
assay_system = "Melanocyte-stimulating hormone receptor (Homo sapiens, UniProt Q01726)"
label = 0.0

